- ASSAY_SUMMARY: limiting solubility in liquid-crystalline mixtures at 20° C.
- Type: physicochemical
- ASSAY_CONTEXT: ZLI-1840, 20° C.; Table 6, derivatives of SU 1089084
Form field: Solubility (limiting), known derivatives (one value per entry).
Please reply with the bare figure in mass % and do not write the unit itself.

Value of measured Solubility (limiting), known derivatives for the entry CCCCCC1CCC(c2ccc(C(=O)Nc3ccc(O)c4c3C(=O)c3c(NC(=O)c5ccc(C6CCC(CCCCC)CC6)cc5)ccc(OC(=O)c5ccc(C6CCC(CCCCC)CC6)cc5)c3C4=O)cc2)CC1 (stereo not shown) [No. 10, Table 6, reference compound] : 0.6

Data point: CCCCCCc1ccc(C(=O)Nc2ccc(NC(=O)c3ccc(CCCCCC)cc3)c3c2C(=O)c2ccccc2C3=O)cc1 [No. 4, Table 6, reference compound] ; Solubility (limiting), known derivatives = 0.6

Please fill in: Solubility (limiting), known derivatives reported for CCCCc1ccc(C(=O)Nc2ccc(O)c3c2C(=O)c2c(NC(=O)c4ccc(CCCC)cc4)ccc(OC(=O)c4ccc(CCCC)cc4)c2C3=O)cc1 [No. 8, Table 6, reference compound] = 0.3

Solubility (limiting), known derivatives recorded for this compound, CCCCCc1ccc(-c2ccc(C(=O)Nc3ccc(NCCCC)c4c3C(=O)c3ccccc3C4=O)cc2)cc1 [No. 2, Table 6, reference compound] , is 0.5

---

- ASSAY_SUMMARY: limiting solubility in liquid-crystalline mixtures at 20° C.
- Assay type: physicochemical
- ASSAY_CONTEXT: ZK-1282, 20° C.
Below is a list of entries, each paired with its recorded Solubility (limiting) value.
API: value field is a number in mass %; no unit string.

CCCCC[C@H]1CC[C@H](c2ccc(C(=O)Nc3cc(CCCC)c(O)c4c3C(=O)c3c(NC(=O)c5ccc([C@H]6CC[C@H](CCCCC)CC6)cc5)cc(CCCC)c(O)c3C4=O)cc2)CC1
1.0
CCCCC[C@H]1CC[C@H](c2ccc(C(=O)Nc3ccc(O)c4c3C(=O)c3c(NC(=O)c5ccc([C@H]6CC[C@H](CCCCC)CC6)cc5)cc(C)c(O)c3C4=O)cc2)CC1
1.0
CCCCc1ccc(C(=O)Nc2cc(CCCC)c(OC(=O)c3ccc(CCCC)cc3)c3c2C(=O)c2c(NC(=O)c4ccc(CCCC)cc4)cc(CCCC)c(OC(=O)c4ccc(CCCC)cc4)c2C3=O)cc1
4.0
CCCCCC1CCC(c2ccc(C(=O)Nc3cc(CCCC)c(OC(=O)c4ccc(C5CCC(CCCCC)CC5)cc4)c4c3C(=O)c3c(NC(=O)c5ccc(C6CCC(CCCCC)CC6)cc5)cc(CCCC)c(OC(=O)c5ccc(C6CCC(CCCCC)CC6)cc5)c3C4=O)cc2)CC1 (centres unmarked)
1.8

// switching to the query compound
Entry `CCCCCCc1ccc(C(=O)Nc2cc(CCCCC)c(O)c3c2C(=O)c2c(NC(=O)c4ccc(CCCCCC)cc4)cc(CCCCC)c(OC(=O)c4ccc(CCCCCC)cc4)c2C3=O)cc1` , Solubility (limiting) reported as 0.7

---

- ASSAY_SUMMARY: limiting solubility in liquid-crystalline mixtures at 20° C.
- Type: physicochemical
- ASSAY_CONTEXT: ZK-807, 20° C.
ENDPOINT_NAME: Solubility (limiting)
Field note: include the unit after the figure.

For orientation, consider the following solved cases.
CCCCCC1CCC(c2ccc(C(=O)Nc3cc(CCCC)c(OC(=O)c4ccc(C5CCC(CCCCC)CC5)cc4)c4c3C(=O)c3c(NC(=O)c5ccc(C6CCC(CCCCC)CC6)cc5)cc(CCCC)c(OC(=O)c5ccc(C6CCC(CCCCC)CC6)cc5)c3C4=O)cc2)CC1 (stereo not drawn)
11.0 mass %
CCCCCCC1CCC(C(=O)Nc2ccc(OC(=O)C3CCC(CCCCCC)CC3)c3c2C(=O)c2c(NC(=O)C4CCC(CCCCCC)CC4)cc(C)c(OC(=O)C4CCC(CCCCCC)CC4)c2C3=O)CC1 (stereo not drawn)
3.0 mass %
CCCCCCC1CCC(c2ccc(C(=O)Nc3cc(CCCC)c(O)c4c3C(=O)c3c(NC(=O)c5ccc(C6CCC(CCCCCC)CC6)nc5Cl)cc(CCCC)c(OC(=O)c5ccc(C6CCC(CCCCCC)CC6)nc5Cl)c3C4=O)c(Cl)n2)CC1 (stereo not drawn)
1.2 mass %

Entry `CCCCCCc1ccc(C(=O)Nc2cc(CCCCC)c(O)c3c2C(=O)c2c(NC(=O)c4ccc(CCCCCC)cc4)cc(CCCCC)c(OC(=O)c4ccc(CCCCCC)cc4)c2C3=O)cc1` — recorded Solubility (limiting) = 2.9 mass %

Quick note, Solubility (limiting) for `CCCCCc1cc(NC(=O)c2ccc(CCCC)cc2)c2c(c1O)C(=O)c1c(OC(=O)c3ccc(CCCC)cc3)c(CCCCC)cc(NC(=O)c3ccc(CCCC)cc3)c1C2=O` landed at 3.0 mass %

get_value(item= CCCCc1cc(NC(=O)c2ccc(C3CCC(CCCC)CC3)cc2)c2c(c1OC(=O)CCC)C(=O)c1c(OC(=O)CCC)c(CCCC)cc(NC(=O)c3ccc(C4CCC(CCCC)CC4)cc3)c1C2=O (stereo not drawn) , readout=Solubility (limiting)) returns 4.9 mass %

Solubility (limiting) recorded for this compound, `CCCCCCc1ccc(C(=O)Nc2cc(CCCC)c(OC(=O)c3ccc(CCCCCC)cc3)c3c2C(=O)c2c(NC(=O)c4ccc(CCCCCC)cc4)cc(CCCC)c(OC(=O)c4ccc(CCCCCC)cc4)c2C3=O)cc1` , is 5.0 mass %

The compound CCCCCC1CCC(c2ccc(C(=O)Nc3cc(CCCC)c(OC(=O)C4CCC(CCCC)CC4)c4c3C(=O)c3c(NC(=O)c5ccc(C6CCC(CCCCC)CC6)cc5)cc(CCCC)c(OC(=O)C5CCC(CCCC)CC5)c3C4=O)cc2)CC1 (stereo not drawn) showed Solubility (limiting) equal to 9.0 mass %

Quick note, Solubility (limiting) for CCCCCC1CCC(c2ccc(C(=O)Nc3cc(CCCC)c(O)c4c3C(=O)c3c(OC(=O)c5ccc(C6CCC(CCCCC)CC6)cc5)c(CCCC)cc(NC(=O)c5ccc(C6CCC(CCCCC)CC6)cc5)c3C4=O)cc2)CC1 (stereo not drawn) landed at 6.0 mass %

---

- ASSAY_SUMMARY: negative dichroism S in a liquid-crystalline mixture
- Assay type: physicochemical
- ASSAY_CONTEXT: liquid-crystalline mixture ZK-807
Below, each entry is listed alongside its reported negative dichroism S.
// no unit string in output, number only

CCCCc1ccc(C(=O)Nc2cc(CCCC)c(O)c3c2C(=O)c2c(NC(=O)c4ccc(CCCC)cc4)cc(CCCC)c(OC(=O)c4ccc(CCCC)cc4)c2C3=O)cc1 [Compound 18]
-0.31
CCCCC[C@H]1CC[C@H](c2ccc(C(=O)Nc3cc(CCCC)c(O)c4c3C(=O)c3c(NC(=O)c5ccc([C@H]6CC[C@H](CCCCC)CC6)cc5)cc(CCCC)c(O)c3C4=O)cc2)CC1 [Compound 29]
-0.32

Lab book: negative dichroism S of CCCCCCC1CCC(c2ccc(C(=O)Nc3cc(CCCC)c(O)c4c3C(=O)c3c(NC(=O)c5ccc(C6CCC(CCCCCC)CC6)nc5Cl)cc(CCCC)c(OC(=O)c5ccc(C6CCC(CCCCCC)CC6)nc5Cl)c3C4=O)c(Cl)n2)CC1 (stereo not shown) [Compound 20] noted as -0.33

# negative dichroism S (molecule: CCCCCC1CCC(c2ccc(C(=O)Nc3cc(CCCC)c(O)c4c3C(=O)c3c(OC(=O)c5ccc(C6CCC(CCCCC)CC6)cc5)c(CCCC)cc(NC(=O)c5ccc(C6CCC(CCCCC)CC6)cc5)c3C4=O)cc2)CC1 (stereo not shown) [Compound 24] ) is -0.33

The reported value for CCCCCC1CCC(c2ccc(C(=O)Nc3ccc(O)c4c3C(=O)c3c(NC(=O)c5ccc(C6CCC(CCCCC)CC6)cc5)cc(CCCC)c(O)c3C4=O)cc2)CC1 (stereo not shown) [Compound 28] in terms of negative dichroism S is -0.32

Quick note, negative dichroism S for CCCCc1ccc(C(=O)Nc2cc(CCCC)c(NC(=O)c3ccc(CCCC)cc3)c3c2C(=O)c2ccccc2C3=O)cc1 [Compound 2] landed at -0.22

The recorded negative dichroism S for CCCCCC1CCC(c2ccc(C(=O)Nc3cc(CCCC)c(OC(=O)c4ccc(C5CCC(CCCCC)CC5)cc4)c4c3C(=O)c3c(NC(=O)c5ccc(C6CCC(CCCCC)CC6)cc5)cc(CCCC)c(OC(=O)c5ccc(C6CCC(CCCCC)CC6)cc5)c3C4=O)cc2)CC1 (stereo not shown) [Compound 8] is -0.38

---

# Solubility (limiting) listing for each entry below
- ASSAY_SUMMARY: limiting solubility in liquid-crystalline mixtures at 20° C.
- Format: physicochemical
- ASSAY_CONTEXT: SP-586, 20° C.
Numbers only here, please. The scale is mass %.

Recorded results for 3 compounds are shown here.
CCCCc1cc(NC(=O)C2CCC(CCCC)CC2)c2c(c1OC(=O)c1ccc(C3CCC(CCCC)CC3)cc1)C(=O)c1c(OC(=O)c3ccc(C4CCC(CCCC)CC4)cc3)c(CCCC)cc(NC(=O)C3CCC(CCCC)CC3)c1C2=O (stereo not drawn) [Compound 10]
7.5
CCCCCC1CCC(c2ccc(C(=O)Nc3ccc(O)c4c3C(=O)c3c(NC(=O)c5ccc(C6CCC(CCCCC)CC6)cc5)cc(CCCC)c(O)c3C4=O)cc2)CC1 (stereo not drawn) [Compound 28]
0.8
CCCCc1ccc(C(=O)Nc2cc(CCCC)c(NC(=O)c3ccc(CCCC)cc3)c3c2C(=O)c2ccccc2C3=O)cc1 [Compound 2]
2.9

// sample CCCCCC1CCC(c2ccc(C(=O)Nc3cc(CCCC)c(O)c4c3C(=O)c3c(NC(=O)c5ccc(C6CCC(CCCCC)CC6)cc5)cc(CCCC)c(OC(=O)CCC)c3C4=O)cc2)CC1 (stereo not drawn) [Compound 22] , its Solubility (limiting) was 1.2

The compound identified as CCCCCC1CCC(c2ccc(C(=O)Nc3cc(CCCC)c(O)c4c3C(=O)c3c(NC(=O)c5ccc(C6CCC(CCCCC)CC6)cc5)cc(CCCC)c(OC(=O)c5ccc(C6CCC(CCCCC)CC6)cc5)c3C4=O)cc2)CC1 (stereo not drawn) [Compound 19] registered its Solubility (limiting) at 2.9

In plain terms, CCCCc1ccc(C(=O)Nc2ccc(OC(=O)c3ccc(CCCC)cc3)c3c2C(=O)c2c(NC(=O)c4ccc(CCCC)cc4)cc(C)c(OC(=O)c4ccc(CCCC)cc4)c2C3=O)cc1 [Compound 3] has a documented Solubility (limiting) of 2.0
